Recorded MIC for the following molecules
- Test system: N. gonorrhoeae 49226
- Format: cell-based
- Experimental setup: Neisseria gonorrhoeae; N. gonorrhoeae 49226; read-out: MIC
Readout: MIC

{"columns": ["Molecule", "Reading"],
 "data": [
  ["O=C(Nc1nnc(-c2ccc(F)cc2)o1)N1Cc2ccccc2C1 [compound 4330]", "0.16 µg/mL"],
  ["O=C(Nc1nnc(-c2ccc(F)cc2)o1)N1CC=C(C(F)(F)F)CC1 [compound 4347]", "0.089 µg/mL"],
  ["O=C(Nc1nnc(-c2ccc(F)cc2)o1)c1ccc(Oc2ccccc2)nc1 [compound 4237]", "0.75 µg/mL"],
  ["O=C(Nc1nnc(-c2ccc(F)cc2)o1)N1CCc2cc(F)ccc2C1 [compound 4331]", "0.089 µg/mL"],
  ["O=C(Nc1nnc(-c2ccc(F)cc2)o1)c1ccc(OC2CCCC2)cc1 [compound 4293]", "0.09 µg/mL"],
  ["O=C(Nc1nnc(-c2ccc(F)cc2)o1)c1ccc(OC2CCCCC2)cc1 [compound 4292]", "0.1 µg/mL"],
  ["O=C(Nc1nnc(-c2ccc(F)cc2)o1)N1CCc2ccc(F)cc2C1 [compound 4332]", "0.089 µg/mL"]
]}
